Data provenance is patent US20240209053A1.

Target: ferroportin (Homo sapiens)
Test: T47D cell-based ferroportin internalization assay in presence of 0.5% mouse serum albumin (MSA)
Conditions: T47D cells
Numbered stars: 1 amine (or outer) side, 2 acyl side, 3 side chain; on linkers, the order of the positions; unused ones are H or OH. Bridge positions count the residues as written; N and C are the ends. Square brackets hold non-standard residues; d marks the D form. Side chains are listed from the residue outwards. Peptide text beside a SMILES is read from it. * marks the point of attachment. Dip = N[C@H](C(=O)O)C(c1ccccc1)c1ccccc1; Hag = O=C([C@H](CCC=[*:3])N[*:1])[*:2]; Palmitoyl = CCCCCCCCCCCCCCCC(=O)*; β3hF = N[C@H](CC(=O)O)Cc1ccccc1; NMeL = CN[C@@H](CC(C)C)C(=O)O; Isovaleryl = CC(C)CC(=O)*; Ahx = NCCCCCC(=O)O
OUTCOME MEASURE: IC50

The examples below pair each entry with its known result.
CC[C@H](C)[C@@H]1NC(=O)[C@H](C)NC(=O)[C@@H]2CCCN2C(=O)[C@H](C(c2ccccc2)c2ccccc2)NC(=O)[C@H](Cc2c[nH]cn2)NC(=O)[C@H]([C@@H](C)O)NC(=O)[C@@H](NC(=O)CC(C)C)CCC=CCC[C@@H](C(=O)N[C@H](CC(=O)N[C@@H](C)C(=O)N[C@H](CCCCN)C(N)=O)Cc2ccccc2)NC1=O [Compd 47] (Isovaleryl-[Hag]TH[Dip]PAI[Hag][β3hF]A[dK]-NH2; staple 1-8) ... 10 to 100 nM
CCCCCCCCCCCCCCCC(=O)NCCCCCC(=O)NCCCC[C@H](NC(=O)C[C@H](Cc1ccccc1)NC(=O)[C@@H]1CCC=CC[C@H](NC(=O)CC(C)C)C(=O)N[C@@H]([C@@H](C)O)C(=O)N[C@@H](Cc2c[nH]cn2)C(=O)N[C@@H](C(c2ccccc2)c2ccccc2)C(=O)N2CCC[C@H]2C(=O)N[C@@H](C)C(=O)N[C@@H]([C@@H](C)CC)C(=O)N1)C(=O)N[C@@H](CCCNC(=N)N)C(N)=O [Compd 23] ... 1 to 10 nM
CCCCCCCCCCCCCCCC(=O)NCCCCCC(=O)NCCCC[C@H](NC(=O)C[C@H](Cc1ccccc1)NC(=O)[C@@H]1CCC=CCC[C@H](NC(=O)CC(C)C)C(=O)N[C@@H]([C@@H](C)O)C(=O)N[C@@H](Cc2c[nH]cn2)C(=O)N[C@@H](C(c2ccccc2)c2ccccc2)C(=O)N2CCC[C@H]2C(=O)N[C@@H](C)C(=O)N(C)[C@@H](CC(C)C)C(=O)N1)C(=O)N[C@H](CCCCN)C(N)=O [Compd 53] (Isovaleryl-[Hag]TH[Dip]PA[NMeL][Hag][β3hF]K([Ahx-Palmitoyl])[dK]-NH2; staple 1-8) ... 10 to 100 nM

Consider the record given below.
Query block: Please give the documented IC50 of CCCCCCCCCCCCCCCC(=O)NCCCCCC(=O)NCCCC[C@H](NC(=O)C[C@H](Cc1ccccc1)NC(=O)[C@@H]1CCC=CCC[C@H](NC(=O)CC(C)C)C(=O)N[C@@H](C)C(=O)N[C@@H](Cc2c[nH]cn2)C(=O)N[C@@H](C(c2ccccc2)c2ccccc2)C(=O)N2CCC[C@H]2C(=O)N[C@@H](C)C(=O)N[C@@H]([C@@H](C)CC)C(=O)N1)C(=O)N[C@H](CCCCN)C(N)=O [Compd 41] (Isovaleryl-[Hag]AH[Dip]PAI[Hag][β3hF]K([Ahx-Palmitoyl])[dK]-NH2; staple 1-8)
Result block: 100 to 500 nM

====

Molecular target: human ferroportin (SLC40A1) (Homo sapiens)
Sequence (Q9NP59 1-571): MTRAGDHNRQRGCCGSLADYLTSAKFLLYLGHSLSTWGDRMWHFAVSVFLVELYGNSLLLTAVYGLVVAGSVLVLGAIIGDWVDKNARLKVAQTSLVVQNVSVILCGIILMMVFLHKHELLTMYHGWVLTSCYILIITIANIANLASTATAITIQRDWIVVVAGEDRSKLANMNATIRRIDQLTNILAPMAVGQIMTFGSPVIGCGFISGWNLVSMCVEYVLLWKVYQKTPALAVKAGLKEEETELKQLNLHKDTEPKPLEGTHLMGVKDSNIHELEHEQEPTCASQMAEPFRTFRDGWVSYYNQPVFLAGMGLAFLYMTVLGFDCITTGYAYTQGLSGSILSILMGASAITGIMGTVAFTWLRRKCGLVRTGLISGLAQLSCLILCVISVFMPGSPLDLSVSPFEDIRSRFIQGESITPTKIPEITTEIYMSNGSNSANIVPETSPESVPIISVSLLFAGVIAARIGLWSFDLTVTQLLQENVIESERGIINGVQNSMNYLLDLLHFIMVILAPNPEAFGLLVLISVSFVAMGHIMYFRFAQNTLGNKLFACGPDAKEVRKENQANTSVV
Assay: FPN activity assay: internalization/degradation of ferroportin-GFP in stably transfected HEK293 cells (decrease in GFP fluorescence)
Conditions: compound incubated at least 18 hours
pIC50: −log10 of the molar value. Numbered stars: 1 amine (or outer) side, 2 acyl side, 3 side chain; on linkers, the order of the positions; unused ones are H or OH. Bridge positions count the residues as written; N and C are the ends. Square brackets hold non-standard residues; d marks the D form. Side chains are listed from the residue outwards. Peptide text beside a SMILES is read from it. * marks the point of attachment. Dip = N[C@H](C(=O)O)C(c1ccccc1)c1ccccc1; Hag = O=C([C@H](CCC=[*:3])N[*:1])[*:2]; Palmitoyl = CCCCCCCCCCCCCCCC(=O)*; tBuAla = CC(C)(C)C[C@H](N)C(=O)O; β3hF = N[C@H](CC(=O)O)Cc1ccccc1; Isovaleryl = CC(C)CC(=O)*; Ahx = NCCCCCC(=O)O
OUTCOME MEASURE: pIC50

CCCCCCCCCCCCCCCC(=O)NCCCCCC(=O)NCCCC[C@H](NC(=O)C[C@H](Cc1ccccc1)NC(=O)[C@@H]1CCC=CCC[C@H](NC(=O)CC(C)C)C(=O)N[C@@H]([C@@H](C)O)C(=O)N[C@@H](CC(C)(C)C)C(=O)N[C@@H](C(c2ccccc2)c2ccccc2)C(=O)N2CCC[C@H]2C(=O)N[C@@H](C)C(=O)N[C@@H]([C@@H](C)CC)C(=O)N1)C(=O)N[C@H](CCCCN)C(N)=O [Compd 59] (Isovaleryl-[Hag]T[tBuAla][Dip]PAI[Hag][β3hF]K([Ahx-Palmitoyl])[dK]-NH2; staple 1-8) ... < 6.30

Query block: Please give the documented pIC50 of "CCCCCCCCCCCCCCCC(=O)NCCCCCC(=O)NCCCC[C@H](NC(=O)C[C@H](Cc1ccccc1)NC(=O)[C@@H]1CCCC=CCC[C@@H](NC(=O)CC(C)C)C(=O)N[C@@H]([C@@H](C)O)C(=O)N[C@@H](Cc2c[nH]cn2)C(=O)N[C@@H](C(c2ccccc2)c2ccccc2)C(=O)N2CCC[C@H]2C(=O)N[C@@H](C)C(=O)N[C@@H]([C@@H](C)CC)C(=O)N1)C(=O)N[C@H](CCCCN)C(N)=O"
Result block: 8.00 to 9.00

Query block: Please give the documented pIC50 of "CCCCCCCCCCCCCCCC(=O)NCCCCCC(=O)NCCCC[C@H](NC(=O)C[C@H](Cc1ccccc1)NC(=O)[C@@H]1CCC=CCC[C@H](NC(=O)CC(C)C)C(=O)N[C@@H]([C@@H](C)O)C(=O)N[C@@H](Cc2c[nH]cn2)C(=O)N[C@@H](C(c2ccccc2)c2ccccc2)C(=O)N2CCC[C@H]2C(=O)N[C@@H](C)C(=O)N[C@@H]([C@@H](C)CC)C(=O)N1)C(=O)N(C)[C@H](CCCCN)C(N)=O"
Result block: 8.00 to 9.00

====

Molecular target: human ferroportin (SLC40A1) (Homo sapiens, UniProt Q9NP59)
Assay: FPN activity assay: internalization/degradation of ferroportin-GFP in stably transfected HEK293 cells (decrease in GFP fluorescence)
Details: compound incubated at least 18 hours
Numbered stars: 1 amine (or outer) side, 2 acyl side, 3 side chain; on linkers, the order of the positions; unused ones are H or OH. Bridge positions count the residues as written; N and C are the ends. Square brackets hold non-standard residues; d marks the D form. Side chains are listed from the residue outwards. Peptide text beside a SMILES is read from it. * marks the point of attachment. Dip = N[C@H](C(=O)O)C(c1ccccc1)c1ccccc1; Hag = O=C([C@H](CCC=[*:3])N[*:1])[*:2]; Palmitoyl = CCCCCCCCCCCCCCCC(=O)*; β3hF = N[C@H](CC(=O)O)Cc1ccccc1; Isovaleryl = CC(C)CC(=O)*; Ahx = NCCCCCC(=O)O
OUTCOME MEASURE: IC50

The examples below pair each entry with its known result.
CCCCCCCCCCCCCCCC(=O)NCCCCCC(=O)NCCCC[C@H](NC(=O)C[C@H](Cc1ccccc1)NC(=O)[C@@H]1CCC=CCCC[C@@H](NC(=O)CC(C)C)C(=O)N[C@@H]([C@@H](C)O)C(=O)N[C@@H](Cc2c[nH]cn2)C(=O)N[C@@H](C(c2ccccc2)c2ccccc2)C(=O)N2CCC[C@H]2C(=O)N[C@@H](C)C(=O)N[C@@H]([C@@H](C)CC)C(=O)N1)C(=O)N[C@H](CCCCN)C(N)=O ... 1 to 10 nM
CCCCCCCCCCCCCCCC(=O)NCCCCCC(=O)NCCCC[C@H](NC(=O)[C@@H]1CCC=CCC[C@H](NC(=O)CC(C)C)C(=O)N[C@@H]([C@@H](C)O)C(=O)N[C@@H](Cc2c[nH]cn2)C(=O)N[C@@H](C(c2ccccc2)c2ccccc2)C(=O)N2CCC[C@H]2C(=O)N1)C(N)=O [Compd 21] (Isovaleryl-[Hag]TH[Dip]P[Hag]K([Ahx-Palmitoyl])-NH2; staple 1-6) ... > 500 nM
CCCCCCCCCCCCCCCC(=O)NCCCCCC(=O)NCCCC[C@@H]1NC(=O)[C@@H]2CCCN2C(=O)[C@H](C(c2ccccc2)c2ccccc2)NC(=O)[C@H](Cc2c[nH]cn2)NC(=O)[C@H]([C@@H](C)O)NC(=O)[C@@H](NC(=O)CC(C)C)CCC=CCC[C@@H](C(=O)N[C@H](CC(=O)N[C@H](CCCCN)C(N)=O)Cc2ccccc2)NC1=O (single isomer, unassigned) [Compd 40] ... > 500 nM
CCCCCCCCCCCCCCCC(=O)NCCCCCC(=O)NCCCC[C@@H]1NC(=O)[C@H](C)NC(=O)[C@@H]2CCCN2C(=O)[C@H](C(c2ccccc2)c2ccccc2)NC(=O)[C@H](Cc2c[nH]cn2)NC(=O)[C@H]([C@@H](C)O)NC(=O)[C@@H](NC(=O)CC(C)C)CCC=CCC[C@@H](C(=O)N[C@H](CC(N)=O)Cc2ccccc2)NC1=O [Compd 25] (Isovaleryl-[Hag]TH[Dip]PAK([Ahx-Palmitoyl])[Hag][β3hF]-NH2; staple 1-8) ... 100 to 500 nM

Consider the record given below.
Query block: Please give the documented IC50 of CCCCCCCCCCCCCCCC(=O)NCCCCCC(=O)NCCCC[C@H](NC(=O)C[C@H](Cc1ccccc1)NC(=O)[C@@H]1CCC=CCC[C@H](NC(=O)CC(C)C)C(=O)N[C@@H]([C@@H](C)O)C(=O)N[C@@H](Cc2c[nH]cn2)C(=O)N[C@@H](C(c2ccccc2)c2ccccc2)C(=O)N2CCC[C@H]2C(=O)N[C@@H]([C@@H](C)CC)C(=O)N1)C(N)=O [Compd 19] (Isovaleryl-[Hag]TH[Dip]PI[Hag][β3hF]K([Ahx-Palmitoyl])-NH2; staple 1-7)
Result block: > 500 nM
